Average inhibition %, biofilms viability values, listed per item
# Tested on: S. aureus ATCC 25923
# ASSAY EXPLANATION: Antibacterial activity, pre-exposure (planktonic cells and biofilm formation)
# Assay type: cell-based, Staphylococcus aureus
# RUN CONDITIONS: pre-exposure, 15 µM, ± SD
Report as a plain number; the unit % is understood.

> print(dat)
                                   compound  obs.value
1      CCCCCCCCc1ccc2nc(CCC(N)(CO)CO)ccc2c1       99.5
2  CCCCCCCCc1ccc(C(O)CC(N)(CO)CO)cc1 (stereo not shown)       28.6
3            CCCCCCCCc1ccc(CCC(N)(CO)CO)cc1       99.7
4            CCCCCCCCc1cccc(CCC(N)(CO)CO)c1       52.5
5       CCCCCCCCc1ccc2ccc(CC(N)(CO)CO)nc2c1       99.7
6           CCCCCCCCOc1ccc(CCC(N)(CO)CO)cc1       48.8

I'd like to know its Average inhibition %, biofilms viability. The compound in question is "CCCCCCCCCCc1ccc(CCC(N)(CO)CO)cc1"
84.9

Repeat for the following compound: "CCCCCCCCCCc1ccc2nc(CC(N)(CO)CO)ccc2c1"
99.8

Repeat for the following compound: "CCCCCCCCCCc1ccc2nc(CCC(N)(CO)CO)ccc2c1"
99.1

Repeat for the following compound: CCCCCCCCCCc1ccc(C(O)CC(N)(CO)CO)cc1 (stereo not shown)
99.2
